Target: pre-existing anti-scFv903 antibodies in human serum H105 (human)
Assay: competition ADA bridging ELISA
reported endpoint: signal change in competition ELISA (% reduction in OD) (%)
Give just the numeric value; % need not be written.

As a guide, the following entries are already answered.
# binder, endpoint result
rows = [
    ("scFv 961 (scFv) scFv: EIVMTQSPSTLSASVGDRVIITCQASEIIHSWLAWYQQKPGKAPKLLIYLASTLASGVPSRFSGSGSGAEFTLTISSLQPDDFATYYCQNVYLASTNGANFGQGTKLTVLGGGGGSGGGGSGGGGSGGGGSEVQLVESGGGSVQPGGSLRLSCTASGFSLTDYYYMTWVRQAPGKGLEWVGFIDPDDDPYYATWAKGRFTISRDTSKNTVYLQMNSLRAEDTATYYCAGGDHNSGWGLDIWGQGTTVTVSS", 7),
    ("scFv 903 (scFv) scFv: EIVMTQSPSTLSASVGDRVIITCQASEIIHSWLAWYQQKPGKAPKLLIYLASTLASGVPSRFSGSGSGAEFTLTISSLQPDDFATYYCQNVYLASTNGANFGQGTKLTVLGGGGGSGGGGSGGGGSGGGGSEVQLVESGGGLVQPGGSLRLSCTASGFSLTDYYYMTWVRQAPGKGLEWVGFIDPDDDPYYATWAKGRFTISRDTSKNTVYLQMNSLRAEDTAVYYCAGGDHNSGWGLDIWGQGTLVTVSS", -97),
    ("scFv105 (scFv) scFv: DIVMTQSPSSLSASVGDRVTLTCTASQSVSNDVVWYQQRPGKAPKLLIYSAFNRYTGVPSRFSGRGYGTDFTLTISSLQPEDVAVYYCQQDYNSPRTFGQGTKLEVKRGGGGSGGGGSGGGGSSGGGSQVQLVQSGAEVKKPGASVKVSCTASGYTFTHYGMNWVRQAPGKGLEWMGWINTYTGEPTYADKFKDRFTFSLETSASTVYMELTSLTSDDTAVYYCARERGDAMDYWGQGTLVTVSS", 2),
]

We next turn to a different binder, shown below.
Req: // returns reported signal change in competition ELISA (% reduction in OD) for input scFv 791 (scFv) scFv: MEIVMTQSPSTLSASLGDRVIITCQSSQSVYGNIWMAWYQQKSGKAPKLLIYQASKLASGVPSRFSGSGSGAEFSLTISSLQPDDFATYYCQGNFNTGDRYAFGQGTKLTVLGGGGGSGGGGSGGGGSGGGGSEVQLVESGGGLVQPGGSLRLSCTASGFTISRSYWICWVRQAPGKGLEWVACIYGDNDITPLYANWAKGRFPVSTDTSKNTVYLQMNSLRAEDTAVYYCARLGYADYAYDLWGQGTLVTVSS
Resp: -97
